Value source: ChEMBL document CHEMBL4049410

Test system: Saccharomyces cerevisiae
Test: Antifungal activity against Saccharomyces cerevisiae after 24 hrs by two-fold serial dilution assay
Format: functional
Conditions: Saccharomyces cerevisiae, 24 h; read-out: MIC
Item-by-item account of log10(MIC)
Heads up: the numbers are on a log10 scale; they represent MIC in µM.

1) COc1cc(-c2nc3ccccc3n2Cc2ccccc2F)c2c(c1O)CN1CCc3cc4c(cc3C1C2)OCO4 (stereo not given); 1.76
2) CCn1c(-c2cc(OC)c(O)c3c2CC2c4cc5c(cc4CCN2C3)OCO5)nc2ccccc21 (stereo not given); 1.36

Incoming: What log10(MIC) value was documented for this compound, COc1cc(-c2nc3ccccc3n2CCCCCCn2c3ccccc3c3ccccc32)c2c(c1O)CN1CCc3cc4c(cc3C1C2)OCO4 (stereo not given) ?
Outgoing: 2.87

Incoming: What log10(MIC) value was documented for this compound, CCCCCCCCCCCCn1c(-c2cc(OC)c(O)c3c2CC2c4cc5c(cc4CCN2C3)OCO5)nc2ccccc21 (stereo not given) ?
Outgoing: 1.85

Incoming: What log10(MIC) value was documented for this compound, COc1cc(-c2nc3cc(Cl)ccc3[nH]2)c2c(c1O)CN1CCc3cc4c(cc3C1C2)OCO4 (stereo not given) ?
Outgoing: 2.95

Incoming: What log10(MIC) value was documented for this compound, CCCn1c(-c2cc(OC)c(O)c3c2CC2c4cc5c(cc4CCN2C3)OCO5)nc2ccccc21 (stereo not given) ?
Outgoing: 2.12

Incoming: What log10(MIC) value was documented for this compound, COc1cc(-c2nc3ccccc3n2Cc2ccc(Cl)cc2Cl)c2c(c1O)CN1CCc3cc4c(cc3C1C2)OCO4 (stereo not given) ?
Outgoing: 1.42

Incoming: What log10(MIC) value was documented for this compound, COc1cc(-c2nc3ccccc3n2Cc2cccc(Cl)c2)c2c(c1O)CN1CCc3cc4c(cc3C1C2)OCO4 (stereo not given) ?
Outgoing: 1.67

Incoming: What log10(MIC) value was documented for this compound, COc1cc(-c2nc3ccccc3n2Cc2ccc(F)cc2)c2c(c1O)CN1CCc3cc4c(cc3C1C2)OCO4 (stereo not given) ?
Outgoing: 1.30

Incoming: What log10(MIC) value was documented for this compound, COc1cc(-c2nc3ccccc3n2Cc2cccc(F)c2)c2c(c1O)CN1CCc3cc4c(cc3C1C2)OCO4 (stereo not given) ?
Outgoing: 1.39

Incoming: What log10(MIC) value was documented for this compound, COc1cc(-c2nc3ccccc3n2Cc2ccccc2Cl)c2c(c1O)CN1CCc3cc4c(cc3C1C2)OCO4 (stereo not given) ?
Outgoing: 1.37

Incoming: What log10(MIC) value was documented for this compound, COc1ccc2c(c1O)CN1CCc3cc4c(cc3C1C2)OCO4 (stereo not given) ?
Outgoing: 3.20

Incoming: What log10(MIC) value was documented for this compound, CCCCCCCCn1c(-c2cc(OC)c(O)c3c2CC2c4cc5c(cc4CCN2C3)OCO5)nc2ccccc21 (stereo not given) ?
Outgoing: 1.98

Incoming: What log10(MIC) value was documented for this compound, COc1cc(-c2nc3cc(F)ccc3[nH]2)c2c(c1O)CN1CCc3cc4c(cc3C1C2)OCO4 (stereo not given) ?
Outgoing: 0.94

Incoming: What log10(MIC) value was documented for this compound, COc1cc(-c2nc3ccccc3n2Cc2ccc(Cl)c(Cl)c2)c2c(c1O)CN1CCc3cc4c(cc3C1C2)OCO4 (stereo not given) ?
Outgoing: 1.42

Incoming: What log10(MIC) value was documented for this compound, `OC(Cn1cncn1)(Cn1cncn1)c1ccc(F)cc1F` ?
Outgoing: 1.72

Incoming: What log10(MIC) value was documented for this compound, COc1cc(-c2nc3ccccc3[nH]2)c2c(c1O)CN1CCc3cc4c(cc3C1C2)OCO4 (stereo not given) ?
Outgoing: 1.68

Incoming: What log10(MIC) value was documented for this compound, `COc1ccc2cc3[n+](cc2c1OC)CCc1cc2c(cc1-3)OCO2` ?
Outgoing: 2.46

Incoming: What log10(MIC) value was documented for this compound, COc1ccc(Cn2c(-c3cc(OC)c(O)c4c3CC3c5cc6c(cc5CCN3C4)OCO6)nc3ccccc32)cc1 (stereo not given) ?
Outgoing: 1.58

Incoming: What log10(MIC) value was documented for this compound, COc1cc(C=O)c2c(c1O)CN1CCc3cc4c(cc3C1C2)OCO4 (stereo not given) ?
Outgoing: 2.56
